Test system: IGROV1 ovarian
Test: NCI-60 one-dose screen, 48 h (100 = growth as untreated, 0 = no growth, -100 = all killed)
Conditions: 10 µM unless noted
Procedure: Growth inhibition of the IGROV1 human tumor cell line is measured as a screen for anti-cancer activity. Cells are grown in 96 well plates and exposed to the test compound for 48 hours. Compounds are tested at a single concentration, which is 10^-5 M for most compounds. The reported endpoint is percent growth (GI% or GIPRCNT), where numbers from 0 - 100% represent growth inhibition, and numbers from -100% - 0 represent cell death. For example, a value of 40 represents 60% growth inhibition. […]
About 83,000 compounds went through this panel and 20% of them were active in at least one assay; those are over-represented in the sample as a whole.
Result Type: growth (%)
Kindly provide the numeric value in % only, without the unit symbol.

## Task Please list growth recorded for the compound "C=C1CC[C@@]2(C#N)[C@H]3[C@H](CC[C@@H]2C)[C@@H](C)C[C@@H](CC(C)(C)C#N)[C@H]13"
## Result 42.9

## Task Please list growth recorded for the compound "CNCCCNc1nc2ccccc2c2c(=O)c3cc(OC)ccc3sc12"
## Result 68.1

## Task Please list growth recorded for the compound "O=C(CSc1nc2ccccc2[nH]1)Nc1cccc(Cl)c1"
## Result 96.2

## Task Please list growth recorded for the compound CC([C@H]1CCC2C3CCC4C(=O)C(NC=O)=CC[C@]4(C)C3CC[C@@]21C)N(C)C (stereo partly drawn)
## Result 37.8

## Task Please list growth recorded for the compound "Cc1ccc(-c2cnc3sc(C(=O)NCCc4ccccc4)c(C)n23)cc1"
## Result 80.5

## Task Please list growth recorded for the compound "CCN(CC)CCNC(=O)c1cn2ncnc(Oc3ccc(NC(=O)Nc4ccc(Cl)c(C(F)(F)F)c4)cc3)c2c1C"
## Result -53.1

## Task Please list growth recorded for the compound "COc1cc(Nc2nc(NCCN)nc3cc[nH]c(=O)c23)cc(OC)c1"
## Result 57.8

## Task Please list growth recorded for the compound "CCCCCCn1c(-c2ccc(C(=O)O/N=C(\N)c3ccc4c(c3)OCO4)cc2)nc(-c2ccccc2)c1-c1ccccc1"
## Result -68.5

## Task Please list growth recorded for the compound "COc1cc(-c2nc3sccn3c2-c2ccnc(NCCCNS(=O)(=O)c3ccc(F)cc3)n2)ccc1F"
## Result 69.6

## Task Please list growth recorded for the compound "COc1cc(C(=O)c2cnc(-c3cccc4[nH]ccc34)[nH]2)cc(OC)c1OC"
## Result 26.6

## Task Please list growth recorded for the compound "CCOC(=O)Nc1ccc(-c2nc(-c3cccc(OCCN4CCOCC4)c3)c(-c3ccnc(Br)c3)[nH]2)cc1"
## Result 63.6

## Task Please list growth recorded for the compound "COc1ccc(-c2ncnc3c2ncn3CC#CCCl)cc1"
## Result 46.2

## Task Please list growth recorded for the compound "O=c1ccn(Cc2cn(-c3c4ccccc4nc4ccccc34)nn2)c(=O)[nH]1"
## Result 80.9

## Task Please list growth recorded for the compound "O=C(CCN1C(=O)/C(=C/c2ccc(O)cc2)SC1=S)Nc1ccc(Cl)cc1"
## Result 79.7

## Task Please list growth recorded for the compound "Cc1ccc(NC2=C(Cl)C(=O)c3nc(C)ccc3C2=O)cc1"
## Result -75.5

## Task Please list growth recorded for the compound COc1ccc(C(Cc2ccccc2)NCCN2CCOCC2)cc1 (stereo not drawn)
## Result 91.8

## Task Please list growth recorded for the compound "CCCCNc1nc(NN2C(=O)c3cccc4cccc(c34)C2=O)nc(-n2cnc3ccccc32)n1"
## Result 80.4

## Task Please list growth recorded for the compound O=C(CS(=O)c1oc(-c2cccs2)nc1S(=O)(=O)c1ccc(Br)cc1)c1ccccc1 (stereo not drawn)
## Result 101

## Task Please list growth recorded for the compound CC1CN(C2CCCCC2)C(=S)N(c2ccccc2)C1=O (stereo not drawn)
## Result 105

## Task Please list growth recorded for the compound "COc1ccc(/C=C2\Oc3cc(OCCN4CCC(Cc5ccccc5)CC4)ccc3C2=O)cc1OC"
## Result 82.1

## Task Please list growth recorded for the compound "COc1ccn2c(C(C)=O)cc(C(=O)c3ccc4c(c3)Sc3ccccc3N4)c2c1"
## Result 34.9

## Task Please list growth recorded for the compound "Cc1nc2cnc(N)c(C#Cc3cncc(C(=O)Nc4ccc(CN5CCN(C)CC5)c(C(F)(F)F)c4)c3)c2nc1C"
## Result -10.4

## Task Please list growth recorded for the compound O=C1CCC(C(=O)NCCNCCNC(=O)C2CCC(=O)N2)N1 (stereo not drawn)
## Result 110

## Task Please list growth recorded for the compound CCc1cccc2c3c(sc12)C(c1ccc(Cl)cc1)C(C#N)=C(N)O3 (stereo not drawn)
## Result 30.2

## Task Please list growth recorded for the compound "CCCCn1c(-c2ccc(C(=O)O/N=C(\N)c3ccc(OC)cc3)cc2)nc(-c2ccccc2)c1-c1ccccc1"
## Result -70.2

## Task Please list growth recorded for the compound "COc1cc(CCCO)c(OC)c(OC)c1OC"
## Result 109

## Task Please list growth recorded for the compound "Cc1ccc(/C=C(\C#N)n2nc3cccc(F)c3n2)cc1"
## Result 90.9

## Task Please list growth recorded for the compound Cc1cccc(OCC(O)CN2CCN(c3ccc(Cl)cc3)CC2)c1 (stereo not drawn)
## Result 124

## Task Please list growth recorded for the compound "Cc1cc(=O)oc2cc(OC(=O)CN3CCN(C)CC3)ccc12"
## Result 115

## Task Please list growth recorded for the compound "COc1ccc(C(=O)n2nc(-c3ccccc3)nc2N)cc1OC"
## Result 73.5

## Task Please list growth recorded for the compound "O=C(COc1ccc(/C=C2\Cc3ccc(Cl)cc3C2=O)cc1)Nc1nc2ccccc2s1"
## Result -61.5

## Task Please list growth recorded for the compound "Cc1ccc(-c2nc(N3CCN(C(=O)Nc4ccc(Cl)c(C(F)(F)F)c4)CC3)c3ccccc3n2)cc1"
## Result 78.2

## Task Please list growth recorded for the compound "C=C(C)[C@@H]1CC[C@]2(N=C=O)CC[C@]3(C)[C@H](CC[C@@H]4[C@@]5(C)Cc6c([nH]c7ccccc67)C(C)(C)[C@@H]5CC[C@]43C)[C@@H]12"
## Result 84.3

## Task Please list growth recorded for the compound NC[C@@H]1O[C@H](O[C@@H]2[C@@H](CO)OC(O[C@@H]3[C@@H](O)[C@H](N)C[C@H](N)[C@H]3OC3O[C@H](CN)[C@@H](O)[C@H](O)[C@H]3N)[C@@H]2O)[C@H](N)[C@@H](O)[C@@H]1O (stereo partly drawn)
## Result 110

## Task Please list growth recorded for the compound "COc1ccc(-c2[nH]ncc2-c2cc3c(c(OC)c2)OCC(=O)N3)cc1"
## Result 38.2

## Task Please list growth recorded for the compound "c1ccc2c(-c3nc(-c4c[nH]c5ccncc45)cs3)c[nH]c2c1"
## Result 54.2

## Task Please list growth recorded for the compound COc1cc(C2CC(c3ccc(SC)cc3)=NN2C(C)=O)cc(OC)c1OC (stereo not drawn)
## Result 53.8

## Task Please list growth recorded for the compound "O=C(Cc1ccc2c(c1)OCCO2)Nc1nc2ccc(F)cc2s1"
## Result 48.3
